Values from paper PMC7826789

# Test system: EGFR(G719C)
# Condition: Compound Concentration (nM):1000;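 note: KINOMEscan scanMAX binding as percent activity remaining versus control; lower means stronger binding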
Measured Quantity: Percent Control (%)
Numeric answer only, unit % assumed.

Exercise: Identify Percent Control associated with the compound CC1=C(C(=O)Nc2ccc3[nH]ncc3c2)C(c2ccc(Cl)c(Cl)c2)CC(=O)N1 (centres unmarked) [GSK299115A]
Key: 66

Exercise: Identify Percent Control associated with the compound CCS(=O)(=O)c1ccc(OC)c(Nc2ncc(-c3cccc(OC)c3)o2)c1 [GW580509X]
Key: 100

Exercise: Identify Percent Control associated with the compound O=C1Nc2ccc(C(=O)c3ccco3)cc2C1=Cc1cc(Cl)c(O)c(Cl)c1 [GW406108X]
Key: 73

Exercise: Identify Percent Control associated with the compound NS(=O)(=O)c1ccc(N/N=C2\C(=O)Nc3ccc(-c4cnco4)cc32)cc1 [GW276655]
Key: 83

Exercise: Identify Percent Control associated with the compound COc1cc2ncnc(Nc3ccc4c(cnn4Cc4ccccc4)c3)c2cc1OC.Cl [GW282449A]
Key: 0

Exercise: Identify Percent Control associated with the compound CC(C)COC(=O)c1ccc2c(c1)/C(=C/Nc1ccc(S(N)(=O)=O)cc1)C(=O)N2 [GW416981X]
Key: 4.6

Exercise: Identify Percent Control associated with the compound COc1cc(C)c(N(C)C(=O)CN(C)C)cc1Nc1nc(Nc2cccc(F)c2C(N)=O)c2cc[nH]c2n1 [GSK2219385]
Key: 98

Exercise: Identify Percent Control associated with the compound Cl.O=S1CCN(Cc2ccc(-c3ccc4ncnc(Nc5ccc(OCc6ccccc6)c(F)c5)c4c3)o2)CC1 [GW576924A]
Key: 0

Exercise: Identify Percent Control associated with the compound O=C(Nc1n[nH]c2nc(-c3ccc(O)cc3)c(Br)cc12)C1CC1 [SB-725317]
Key: 100

Exercise: Identify Percent Control associated with the compound COc1ccc2c(-c3ccnc(Nc4cccc(OC(F)(F)F)c4)n3)cnn2n1 [GW810372X]
Key: 97

Exercise: Identify Percent Control associated with the compound COc1cccc(-c2c[nH]c3c(N/N=C/c4ccncc4)ncnc23)c1 [GW814408X]
Key: 27

Exercise: Identify Percent Control associated with the compound CN(C)CCNC(=O)Nc1ccc(N(C)c2ccnc(Nc3ccc(CS(C)(=O)=O)cc3)n2)cc1.Cl [GW830900A]
Key: 96

Exercise: Identify Percent Control associated with the compound COC(=O)Nc1nc2ccc(Oc3ccc(NC(=O)Nc4cc(C(F)(F)F)ccc4F)cc3)cc2s1.Cl [GW693917A]
Key: 98

Exercise: Identify Percent Control associated with the compound Cl.O=C(Nc1ccc(Oc2ccc3[nH]c(NC(=O)c4ccco4)nc3c2)cc1)Nc1cc(C(F)(F)F)ccc1F [GW683134A]
Key: 100

====

# Tested on: MAP3K3
# Condition: Compound Concentration (nM):1000
Measured Quantity: Percent Control

Exercise: Identify Percent Control associated with the compound O=C1Nc2ccc(C(=O)c3ccco3)cc2C1=Cc1cc(Cl)c(O)c(Cl)c1 [GW406108X]
Key: 78%

Exercise: Identify Percent Control associated with the compound NS(=O)(=O)c1ccc(N/N=C2\C(=O)Nc3ccc(Cl)cc32)cc1 [GW280670X]
Key: 100%

Exercise: Identify Percent Control associated with the compound CN(C)CCNC(=O)Nc1ccc(N(C)c2ccnc(Nc3ccc(CS(C)(=O)=O)cc3)n2)cc1.Cl [GW830900A]
Key: 84%

Exercise: Identify Percent Control associated with the compound NS(=O)(=O)c1ccc(Nc2ncc(-c3ccccc3)o2)cc1 [GW572399X]
Key: 100%

Exercise: Identify Percent Control associated with the compound Cl.O=C(O[C@H]1CN[C@H](C#Cc2cc3ncnc(Nc4ccc5c(cnn5Cc5ccccc5)c4)c3s2)C1)N1CCOCC1 [GSK200398A]
Key: 89%

Exercise: Identify Percent Control associated with the compound Cl.c1ccc(Cc2nc3ccc(Nc4ncnc5ccccc45)cc3[nH]2)cc1 [GR269666A]
Key: 100%

Exercise: Identify Percent Control associated with the compound CC1=C(C(=O)Nc2ccc3[nH]ncc3c2)C(c2ccc(Cl)c(Cl)c2)CC(=O)N1 (centres unmarked) [GSK299115A]
Key: 85%

Exercise: Identify Percent Control associated with the compound CC(C)COC(=O)c1ccc2c(c1)/C(=C/Nc1ccc(S(N)(=O)=O)cc1)C(=O)N2 [GW416981X]
Key: 90%

====

# Test system: RSK4(Kin.Dom.1-N-terminal)
# Construct: gene RPS6KA6
# Condition: Compound Concentration (nM):1000
Hi there, I'd appreciate the recorded Percent Control for every entry that follows.
Numeric answer only, unit % assumed.

Exercise: Identify Percent Control associated with the compound Cl.O=C(Nc1ccc(Oc2ccc3[nH]c(NC(=O)c4ccco4)nc3c2)cc1)Nc1cc(C(F)(F)F)ccc1F [GW683134A]
Key: 100

Exercise: Identify Percent Control associated with the compound COC(=O)Nc1nc2ccc(Oc3ccc(NC(=O)Nc4cc(C(F)(F)F)ccc4F)cc3)cc2s1.Cl [GW693917A]
Key: 76

Exercise: Identify Percent Control associated with the compound COc1ccc2[nH]c3c4[nH]c5ccc(OC)cc5c4c4c(c3c2c1)C(=O)NC4=O [GW296115X]
Key: 5.8

Exercise: Identify Percent Control associated with the compound NS(=O)(=O)c1ccc(N/N=C2\C(=O)Nc3ccc(C(=O)NCc4ccncc4)cc32)cc1 [GW300657X]
Key: 56

Exercise: Identify Percent Control associated with the compound NS(=O)(=O)c1ccc(Nc2ncc(-c3ccccc3)o2)cc1 [GW572399X]
Key: 96

Exercise: Identify Percent Control associated with the compound CCS(=O)(=O)c1ccc(OC)c(Nc2ncc(-c3cccc(F)c3)o2)c1 [GW621970X]
Key: 100

Exercise: Identify Percent Control associated with the compound COc1cc(N2CCN(C(C)C)CC2)ccc1Nc1nc(Nc2ccc(F)cc2C(=O)NC[C@@H](O)CO)c2cc[nH]c2n1 [GSK1392956A]
Key: 55

Exercise: Identify Percent Control associated with the compound NS(=O)(=O)c1ccc(N/N=C2\C(=O)Nc3ccc(C(=O)NCCc4c[nH]cn4)cc32)cc1 [GW300660X]
Key: 45

====

# System: JNK3
# Construct: gene MAPK10
# Condition: Compound Concentration (nM):1000
Hi there, I'd appreciate the recorded Percent Control for every entry that follows.
Numeric answer only, unit % assumed.

Exercise: Identify Percent Control associated with the compound COc1cc(C)c(N(C)C(=O)CN(C)C)cc1Nc1nc(Nc2cccc(F)c2C(N)=O)c2cc[nH]c2n1
Key: 83

Exercise: Identify Percent Control associated with the compound Nc1ncnc2occ(-c3ccc(NC(=O)Nc4cc(C(F)(F)F)ccc4F)cc3)c12 [GW770249X]
Key: 100

Exercise: Identify Percent Control associated with the compound CC1=C(C(=O)Nc2ccc3[nH]ncc3c2)C(c2ccc(Cl)c(Cl)c2)CC(=O)N1 (stereo not shown) [GSK299115A]
Key: 77

Exercise: Identify Percent Control associated with the compound COc1cccc(-c2c[nH]c3c(N/N=C/c4ccncc4)ncnc23)c1 [GW814408X]
Key: 90

====

# System: FGFR1
# Condition: Compound Concentration (nM):1000
Measured Quantity: Percent Control (%)
Numeric answer only, unit % assumed.

Exercise: Identify Percent Control associated with the molecule Cc1cc(O)cc(C)c1/C=C/c1cncc(C(N)=O)c1 [GW435821X]
Key: 92

Exercise: Identify Percent Control associated with the molecule COc1cccc(-n2ncc3c(N/N=C/c4ccncc4)ncnc32)c1 [GW784752X]
Key: 87

Exercise: Identify Percent Control associated with the molecule NS(=O)(=O)c1ccc(N/N=C2\C(=O)Nc3ccc(-c4cnco4)cc32)cc1 [GW276655]
Key: 85

Exercise: Identify Percent Control associated with the molecule COc1ccc2cc(-c3c(-c4ccncc4)nc(-c4ccc(S(C)(=O)=O)cc4C)n3C)ccc2c1 [SB-633825]
Key: 73

Exercise: Identify Percent Control associated with the molecule C/C(Nc1ccc(S(N)(=O)=O)cc1)=C1/C(=O)Nc2ccccc21 [GW335962X]
Key: 86

Exercise: Identify Percent Control associated with the molecule COc1cc(/C=N/Nc2ncnc3[nH]ncc23)ccc1O [GW578748X]
Key: 81

Exercise: Identify Percent Control associated with the molecule Cl.O=C(Nc1ccc(Oc2ccc3[nH]c(NC(=O)c4ccco4)nc3c2)cc1)Nc1cc(C(F)(F)F)ccc1F [GW683134A]
Key: 64

Exercise: Identify Percent Control associated with the molecule CN1CCN(C(=O)c2ccc(NC(=O)Nc3ccc(N(C)c4ccnc(Nc5ccc(CS(C)(=O)=O)cc5)n4)cc3)cc2)CC1.Cl [GW830263A]
Key: 100

====

# System: PIK3CA
# Condition: Compound Concentration (nM):1000
Measured Quantity: Percent Control (%)
Numeric answer only, unit % assumed.

Exercise: Identify Percent Control associated with the compound CCS(=O)(=O)c1ccc(OC)c(Nc2ncc(-c3cccc(F)c3)o2)c1 [GW621970X]
Key: 100

Exercise: Identify Percent Control associated with the compound Cl.O=C(Nc1ccc(Oc2ccc3[nH]c(NC(=O)c4ccco4)nc3c2)cc1)Nc1cc(C(F)(F)F)ccc1F [GW683134A]
Key: 100

Exercise: Identify Percent Control associated with the compound COc1cc(C=NNc2ncnc3c2cnn3-c2ccccc2)ccc1O [GW513184X]
Key: 78

Exercise: Identify Percent Control associated with the compound CC1=C(C(=O)Nc2ccc3[nH]ncc3c2)C(c2ccc(Cl)c(Cl)c2)CC(=O)N1 (centres unmarked) [GSK299115A]
Key: 82

Exercise: Identify Percent Control associated with the compound CN(C)CCNC(=O)Nc1ccc(N(C)c2ccnc(Nc3ccc(CS(C)(=O)=O)cc3)n2)cc1.Cl [GW830900A]
Key: 92
